Assignment: determine reported non-cytoxic concentration for the given compounds.
tested on: AML12 cells; assay: AML12 cell viability (CCK8); assay type: cell-based; settings: mouse

The measured non-cytoxic concentration associated with C[C@H](O)[C@H](O)[C@H]1CNc2nc(N)[nH]c(=O)c2N1 [BH4, tetrahydrobiopterin] reads 5 to 20 µM

Please fill in: non-cytoxic concentration reported for O=C(O)CCCCCCCC(=O)O = 5 to 20 µM

The reported non-cytoxic concentration of the compound C[C@H]1CC[C@@]2(OC1)O[C@H]1C[C@H]3[C@@H]4CC[C@@H]5C[C@@H](O[C@@H]6O[C@H](CO)[C@H](O)[C@H](O)[C@H]6O[C@@H]6O[C@H](CO)[C@@H](O)[C@H](O)[C@H]6O)CC[C@]5(C)[C@H]4CC[C@]3(C)[C@H]1[C@@H]2C was 0.1 to 0.5 µM

Memo: O=c1c(-c2ccc(O)cc2)coc2cc(O)ccc12 , reported non-cytoxic concentration: 5 to 20 µM

Memo: C[C@@H](CC[C@@]1(O)O[C@H]2C[C@H]3[C@@H]4CC[C@@H]5C[C@@H](O[C@@H]6O[C@H](CO)[C@H](O)[C@H](O)[C@H]6O[C@@H]6O[C@H](CO)[C@@H](O)[C@H](O)[C@H]6O)CC[C@]5(C)[C@H]4CC[C@]3(C)[C@H]2[C@@H]1C)CO[C@@H]1O[C@H](CO)[C@@H](O)[C@H](O)[C@H]1O , reported non-cytoxic concentration: 5 to 20 µM

meta.source: paper PMC12794274
